# Tested on: A549
# measurement_description: NCI tumour cell line growth inhibition, 48 h
Calls of active or inactive are those of the source. Cut-off read from the data, not from the text of the source: active = GI50 up to about 1.1 µM and inactive = higher.
Labels: 1 = active, -1 = inactive

{"compound": "CC1(C)OC1CC/C(=C/CBr)CBr (centres undefined)", "target_or_system": "A549", "class_name": -1}
{"compound": "N#Cc1cc(Sc2ccc(N)c(C#N)c2)ccc1N", "target_or_system": "A549", "class_name": -1}
{"compound": "COc1ccc(-c2cc(=O)c3c(O)cccc3o2)c(OC)c1OC", "target_or_system": "A549", "class_name": -1}
{"compound": "NCC1CCCCC1.O=C(O)NCC1CCCCC1", "target_or_system": "A549", "class_name": -1}
{"compound": "COc1ccc(-c2nc(-c3cnccn3)n(C3OC(CO)C(O)C(O)C3O)n2)cc1 (centres undefined)", "target_or_system": "A549", "class_name": -1}
{"compound": "N#Cc1ccc(Nc2cnc3ccc(N)cc3n2)cc1", "target_or_system": "A549", "class_name": -1}
{"compound": "c1ccc(/C(=N/Nc2cnccn2)c2ncccn2)cc1", "target_or_system": "A549", "class_name": -1}
{"compound": "CC(=O)O[C@@H]1CC[C@@]2(C)C(=O)C34C[C@@]5(C)C([C@@H](C)CCCC(C)C)CCC5(C)[C@](O)(O3)C(=O)[C@H]4C2C1(C)C (some centres undefined)", "target_or_system": "A549", "class_name": -1}
{"compound": "O=C(O)c1cc2ccccc2c(/N=N/c2ccc(S(=O)(=O)Nc3ccccn3)cc2)c1O", "target_or_system": "A549", "class_name": -1}
{"compound": "N#CC(C#N)=C(N)/C(C#N)=C\\c1ccnc2ccccc12", "target_or_system": "A549", "class_name": -1}
{"compound": "Cc1nc(N)nc(S)c1CCC(=O)O", "target_or_system": "A549", "class_name": -1}
{"compound": "Cc1ccc(S(=O)(=O)[C@@H](Cl)[C@H]2N=C(Cl)NN=C2c2ccccc2)cc1", "target_or_system": "A549", "class_name": -1}
{"compound": "C=CC(C1=CC(=O)C(OC)=CC1=O)c1ccccc1 (centres undefined)", "target_or_system": "A549", "class_name": -1}
{"compound": "CO[C@@H]1C[C@H]2N3CC[C@@]2(c2cc4c(cc2C3)OCO4)[C@H]2O[C@@H]12", "target_or_system": "A549", "class_name": -1}
{"compound": "C#C[C@]1(O)CCCC2=CC(=O)CC[C@@]21C", "target_or_system": "A549", "class_name": -1}
{"compound": "C(=C\\C(Sc1ccccc1)c1ccccc1)/NNC1=NN=C(c2ccccc2)C(c2ccccc2)N1 (centres undefined)", "target_or_system": "A549", "class_name": -1}
{"compound": "COc1cc(C2SCC(=O)N2c2ccc(-n3c(-c4ccccc4)nc4ccccc4c3=O)cc2)ccc1O (centres undefined)", "target_or_system": "A549", "class_name": -1}
{"compound": "CC(O)c1cc2c(s1)C(=O)c1scc(C(C)O)c1C2=O (centres undefined)", "target_or_system": "A549", "class_name": 1}
{"compound": "CC(C)(C)OC(=O)NC(Cc1ccccc1)NC(=O)NC(=O)OCc1ccccc1 (centres undefined)", "target_or_system": "A549", "class_name": -1}
{"compound": "COc1cc(Cc2ccc3c(c2C#N)N(C)c2ccccc2S3)cc(OC)c1OC", "target_or_system": "A549", "class_name": -1}
{"compound": "c1ccc2nc(CCC3CCCCN3)ccc2c1 (centres undefined)", "target_or_system": "A549", "class_name": -1}
{"compound": "Cc1ccccc1-c1nc2c(C(=O)NCCN(C)C)cccc2[nH]1", "target_or_system": "A549", "class_name": -1}
{"compound": "CO[C@H]1O[C@@H]2OC3(C)CCC4[C@H](C)CCC([C@H]1C)[C@]42OO3 (some centres undefined)", "target_or_system": "A549", "class_name": -1}
{"compound": "CC1OC(OCC2COC(O)(Oc3c(-c4ccc(O)c(O)c4)oc4cc(O)cc(O)c4c3=O)C(O)C2O)C(O)C(O)C1O (centres undefined)", "target_or_system": "A549", "class_name": -1}
{"compound": "Cc1cc(O)nc(CNC(=O)c2cccc(C(=O)NCc3cc(O)nc(C)n3)c2)n1", "target_or_system": "A549", "class_name": -1}
{"compound": "CC(NCc1c(O)ccc2ccc(=O)oc12)C(=O)O (centres undefined)", "target_or_system": "A549", "class_name": -1}
{"compound": "N#CC(Cl)CS(=O)(=O)c1ccccc1 (centres undefined)", "target_or_system": "A549", "class_name": -1}
{"compound": "CN1CCN(CCn2c3c4ccccc4ccc3c3oc(=O)c4ccccc4c32)CC1", "target_or_system": "A549", "class_name": -1}
{"compound": "C=C1CC(CN2CCC(=O)NC2=O)(c2ccccc2)OC1=O (centres undefined)", "target_or_system": "A549", "class_name": -1}
{"compound": "Cn1c(=O)ccc2cc(C(=O)c3ccccc3)ccc21", "target_or_system": "A549", "class_name": -1}
{"compound": "COc1cc(OC)cc(C(=O)NC2=C(Cl)C(=O)c3ccccc3C2=O)c1", "target_or_system": "A549", "class_name": -1}
{"compound": "Cn1c(=O)c2c3ccccc3c(C(=O)c3ccccc3)n2c2ccccc21", "target_or_system": "A549", "class_name": -1}
{"compound": "c1cncc(CSc2nc3ccccc3nc2-c2cccs2)c1", "target_or_system": "A549", "class_name": -1}
{"compound": "Cc1ccc(NC(=S)C#N)cc1Cl", "target_or_system": "A549", "class_name": -1}
{"compound": "COc1ccc(/C=C/C(C(=O)O)C(=O)O)cc1", "target_or_system": "A549", "class_name": -1}
{"compound": "Nc1ccccc1N/C(=C\\C(=O)C(Cl)(Cl)Cl)c1ccccc1", "target_or_system": "A549", "class_name": -1}
{"compound": "c1ccc([P+](Cc2ccc(C[P+](c3ccccc3)(c3ccccc3)c3ccccc3)cc2)(c2ccccc2)c2ccccc2)cc1", "target_or_system": "A549", "class_name": -1}
{"compound": "NC1CC(=O)c2cc(Cl)sc21 (centres undefined)", "target_or_system": "A549", "class_name": -1}
{"compound": "Cc1nc(N)nc(S)c1CCCNc1ccccc1", "target_or_system": "A549", "class_name": -1}
{"compound": "COc1c2c(cc3c1C(=O)c1c(O)cccc1C3=O)CC(O)CC2 (centres undefined)", "target_or_system": "A549", "class_name": -1}
{"compound": "COc1ccc(C2=C(OC(=O)N(C)C)c3cccn3-c3cc(C(F)(F)F)ccc3S2)cc1", "target_or_system": "A549", "class_name": -1}
{"compound": "COc1c(OC2OC(CO)C(O)C(O)C2O)cc2c(c1OC)-c1ccc(OC)c(=O)cc1C(NC(C)=O)CC2 (centres undefined)", "target_or_system": "A549", "class_name": -1}
{"compound": "Cc1cc2c(cc1C)C(=O)C1(C2)Cc2c(ccc(C)c2C)C1=O (centres undefined)", "target_or_system": "A549", "class_name": -1}
{"compound": "COc1ccc2[nH]c(Cl)c(/C=C3/C(=O)N(c4ccccc4)c4ccccc43)c2c1", "target_or_system": "A549", "class_name": -1}
